- System: T-24
- Run description: Antiproliferative activity against human T24 cells assessed as cell growth inhibition by MTT assay
- Type: functional, cell-based
pIC50: −log10 of the molar value.
Endpoint label: pIC50

- O=C1c2cccc3cc([N+](=O)[O-])cc(c23)C(=O)N1CCNCCN1C(=O)c2cccc3cc([N+](=O)[O-])cc(c23)C1=O: 5.46
- O=C1c2cccc3c(N4CCC(N5CCCCC5)CC4)c([N+](=O)[O-])cc(c23)C(=O)N1CCNCCN1C(=O)c2cccc3c(N4CCC(N5CCCCC5)CC4)c([N+](=O)[O-])cc(c23)C1=O: 4.83
- CN(C)CCN1C(=O)c2cccc3cc([N+](=O)[O-])cc(c23)C1=O [MITONAFIDE]: 5.49
- O=C1c2cccc3c(N4CCOCC4)c([N+](=O)[O-])cc(c23)C(=O)N1CCO: 5.03
- CN(C)CCN1C(=O)c2cccc3cc(N)cc(c23)C1=O [AMONAFIDE]: 5.14

Just for reference, ChEMBL document CHEMBL5252609 is where these values come from.
